Examples of compounds with documented MIC E. coli follow.
# Tested on: Escherichia coli UB1005
# Assay type: cell-based
# conditionSet: indolicidin substitution variants (Table 4)
Residues, ends and D or L forms follow the SMILES beside them.
Give the quantity in mg/L, number only.

compound	unitAbbreviation	MIC E. coli
CC[C@H](C)[C@H](N)C(=O)N[C@@H](CC(C)C)C(=O)N[C@@H](CCCCN)C(=O)N[C@@H](Cc1c[nH]c2ccccc12)C(=O)N[C@@H](CCCCN)C(=O)N[C@@H](Cc1c[nH]c2ccccc12)C(=O)N1CCC[C@H]1C(=O)N[C@@H](Cc1c[nH]c2ccccc12)C(=O)N[C@@H](Cc1c[nH]c2ccccc12)C(=O)N[C@@H](CCCCN)C(=O)N[C@@H](Cc1c[nH]c2ccccc12)C(=O)N[C@@H](CCCNC(=N)N)C(=O)N[C@@H](CCCNC(=N)N)C(N)=O [HH970, ILKWKWPWWKWRR] (H-ILKWKWPWWKWRR-NH2; N-terminus assumed)	mg/L	8

// moving on: another record for MIC E. coli
Lookup: Query for Escherichia coli UB1005: what MIC E. coli does the record show for CC[C@H](C)[C@H](N)C(=O)N[C@@H](CC(C)C)C(=O)N1CCC[C@H]1C(=O)N[C@@H](Cc1c[nH]c2ccccc12)C(=O)N[C@@H](CCCCN)C(=O)N[C@@H](Cc1ccccc1)C(=O)N1CCC[C@H]1C(=O)N[C@@H](Cc1c[nH]c2ccccc12)C(=O)N[C@@H](Cc1c[nH]c2ccccc12)C(=O)N1CCC[C@H]1C(=O)N[C@@H](Cc1c[nH]c2ccccc12)C(=O)N[C@@H](CCCNC(=N)N)C(=O)N[C@@H](CCCNC(=N)N)C(N)=O [HH63, ILPWKFPWWPWRR] (H-ILPWKFPWWPWRR-NH2; N-terminus assumed) ?
Found: 16
